Assay: log P determination by HPLC (EEC Directive 79/831 Annex V.A8)
Assay type: physicochemical
Settings: by HPLC according to EEC Directive 79/831 Annex V.A8; read-out: log P
This listing pairs compounds with measured chromatographic logP.
Could you respond with only the numeric value?

Take a look at these entries with their results.
Cc1cc(Cl)cc(C(=O)NC(C)(C)C)c1NC(=O)c1cc(Cn2nnc(C(F)(F)C(F)(F)C(F)(F)F)n2)nn1-c1ncccc1Cl; 4.6
Cc1cc(Cl)cc(C(=O)NCC#N)c1NC(=O)c1cc(Cn2nnc(C(F)(F)C(F)(F)C(F)(F)F)n2)nn1-c1ncccc1Cl; 3.65
Cc1cc(C#N)cc(C(=O)NC(C)C)c1NC(=O)c1cc(Cn2nnc(C(F)(F)C(F)(F)C(F)(F)F)n2)nn1-c1ncccc1Cl; 3.82

Noted for `CNC(=O)c1cc(I)cc(C)c1NC(=O)c1cc(Cn2nnc(C(F)(F)C(F)(F)C(F)(F)F)n2)nn1-c1ncccc1Cl` : its chromatographic logP reads 3.99

Noted for `Cc1cc(I)cc(C(N)=O)c1NC(=O)c1cc(Cn2nnc(C(F)(F)C(F)(F)C(F)(F)F)n2)nn1-c1ncccc1Cl` : its chromatographic logP reads 3.7

Noted for `Cc1cc(C#N)cc(C(N)=O)c1NC(=O)c1cc(Cn2nnc(C(F)(F)C(F)(F)C(F)(F)F)n2)nn1-c1ncccc1Cl` : its chromatographic logP reads 3.17

Noted for `Cc1cc(I)cc(C(=O)NC(C)(C)C)c1NC(=O)c1cc(Cn2nnc(C(F)(F)C(F)(F)C(F)(F)F)n2)nn1-c1ncccc1Cl` : its chromatographic logP reads 4.86

Noted for `CNC(=O)c1cc(Cl)cc(C)c1NC(=O)c1cc(Cn2nnc(C(F)(F)C(F)(F)C(F)(F)F)n2)nn1-c1ncccc1Cl` : its chromatographic logP reads 3.75

Noted for `Cc1cc(Cl)cc(C(N)=O)c1NC(=O)c1cc(Cn2nnc(C(F)(F)C(F)(F)C(F)(F)F)n2)nn1-c1ncccc1Cl` : its chromatographic logP reads 3.49

###

Test: log P determination by HPLC (EEC Directive 79/831 Annex V.A8)
Type: physicochemical
Conditions: log P
Kindly apply the following: label 1 if chromatographic logP is less than 3, label 0 in every other case.

Cc1cc(I)cc(C(=O)NC(C)(C)C)c1NC(=O)c1cc(Cn2nnc(C(F)(F)C(F)(F)F)n2)nn1-c1ncccc1Cl; label 0
CCNC(=O)c1cc(C#N)cc(C)c1NC(=O)c1cc(Cn2nnc(C(F)(C(F)(F)F)C(F)(F)F)n2)nn1-c1ncccc1Cl; label 0
CNC(=O)c1cc(I)cc(C)c1NC(=O)c1cc(Cn2nnc(C(F)(F)C(F)(F)F)n2)nn1-c1ncccc1Cl; label 0
Cc1cc(C#N)cc(C(N)=O)c1NC(=O)c1cc(Cn2nnnc2C(F)(F)F)nn1-c1ncccc1Cl; label 1
Cc1cc(I)cc(C(=O)NC(C)C)c1NC(=O)c1cc(Cn2nnc(C(F)(F)C(F)(F)F)n2)nn1-c1ncccc1Cl; label 0
CSC[C@H](C)NC(=O)c1cc(C#N)cc(C)c1NC(=O)c1cc(Cn2nnc(C(F)(F)C(F)(F)F)n2)nn1-c1ncccc1Cl; label 0
Cc1cc(C#N)cc(C(=O)NCC2CC2)c1NC(=O)c1cc(Cn2nnc(C(F)(F)F)n2)nn1-c1ncccc1Cl; label 0
Cc1cc(C#N)cc(C(=O)NC(C)(C)C)c1NC(=O)c1cc(Cn2nnnc2C(F)(F)C(F)(F)F)nn1-c1ncccc1Cl; label 0
CC(C)(C)NC(=O)c1cc(Cl)cc(Cl)c1NC(=O)c1cc(Cn2nnc(C(F)F)n2)nn1-c1ncccc1Cl; label 0
Cc1cc(C#N)cc(C(=O)NC(C)(C)C)c1NC(=O)c1cc(Cn2nnc(C(F)(F)C(F)(F)F)n2)nn1-c1ncccc1Cl; label 0

Lab note: chromatographic logP threshold 3. Does this molecule come in strictly under it? `Cc1cc(C#N)cc(C(=O)NC2CC2)c1NC(=O)c1cc(Cn2nnnc2C(F)F)nn1-c1ncccc1Cl`
label 1

Lab note: chromatographic logP threshold 3. Does this molecule come in strictly under it? `Cc1cc(I)cc(C(N)=O)c1NC(=O)c1cc(Cn2nnc(C(F)(C(F)(F)F)C(F)(F)F)n2)nn1-c1ncccc1Cl`
label 0

###

This listing pairs compounds with measured chromatographic logP.
Test: log P determination by HPLC (EEC Directive 79/831 Annex V.A8)
Format: physicochemical
Details: log P
Could you respond with only the numeric value?

CSC[C@H](C)NC(=O)c1cc(Cl)cc(C)c1NC(=O)c1cc(Cn2nnc(C(F)F)n2)nn1-c1ncccc1Cl; 3.18
CNC(=O)c1cc(Br)cc(C)c1NC(=O)c1cc(Cn2nnc(C(F)(F)F)n2)nn1-c1ncccc1Cl; 3.05
COC(C)(C)CNC(=O)c1cc(C#N)cc(C)c1NC(=O)c1cc(Cn2nnc(C(F)(F)F)n2)nn1-c1ncccc1Cl; 3.12
Cc1cc(Br)cc(C(N)=O)c1NC(=O)c1cc(Cn2nnc(C(F)(F)F)n2)nn1-c1ncccc1Cl; 2.81
CCNC(=O)c1cc(C#N)cc(C)c1NC(=O)c1cc(Cn2nnc(C(F)(F)F)n2)nn1-c1ncccc1Cl; 2.85

Noted for Cc1cc(C#N)cc(C(=O)NC(C#N)C2CC2)c1NC(=O)c1cc(Cn2nnc(C(F)(F)F)n2)nn1-c1ncccc1Cl (stereo not drawn) : its chromatographic logP reads 3.05

###

Experiment: log P determination by HPLC (EEC Directive 79/831 Annex V.A8)
Format: physicochemical
Details: reversed-phase HPLC, Zorbax Eclipse C18 column, determined by HPLC according to EEC Directive 79/831 Annex V.A8; read-out: log P
measured-endpoint: chromatographic logP
Could you respond with only the numeric value?

Take a look at these entries with their results.
CNC(=O)c1cc(Cl)cc(C)c1NC(=O)c1cc(Cn2nnnc2C(F)(F)F)nn1-c1cc(Cl)ccc1Cl; 3.52
Cc1cc(Cl)cc(C(=O)NC(C)(C)C)c1NC(=O)c1cc(Cn2nnnc2C(F)(F)C(F)(F)F)nn1-c1ncccc1Br; 3.91
CNC(=O)c1cc(C#N)cc(C)c1NC(=O)c1cc(Cn2nnc(C(F)(F)F)n2)nn1-c1c(F)cccc1Cl; 3.13

Noted for `Cc1cc(I)cc(C(=O)NC(C)(C)C)c1NC(=O)c1cc(Cn2nnnc2C(F)(F)F)nn1-c1ncccc1Br` : its chromatographic logP reads 3.73

Noted for `Cc1cc(C#N)cc(C(=O)NC2CC2)c1NC(=O)c1cc(Cn2nnc(C(F)(F)F)n2)nn1-c1ccccc1Cl` : its chromatographic logP reads 3.29

###

Experiment: log P determination by HPLC (EEC Directive 79/831 Annex V.A8)
Format: physicochemical
Details: log P
Protocol: The measurements were carried out using an Agilent 1100 LC system with a 50*4.6 Zorbax Eclipse C18 1.8 μm column (oven temperature 55° C., flow rate 2.0 ml/min). The following mobile phases were used: Mobile phase A: acetonitrile+1000 μl of formic acid/l Mobile phase B: Millipore water+900 μl of formic acid/l
This listing pairs compounds with measured chromatographic logP.
Could you respond with only the numeric value?

Take a look at these entries with their results.
CCNC(=O)c1cc(Cl)cc(C)c1NC(=O)c1cc(Cn2nnc(C(F)(C(F)(F)F)C(F)(F)F)n2)nn1-c1ncccc1Cl; 3.96
Cc1cc(C#N)cc(C(=O)NC(C)C2CCC2)c1NC(=O)c1cc(Cn2nnc(C(F)(F)F)n2)nn1-c1ncccc1Cl (stereo not shown); 3.63
Cc1cc(I)cc(C(=O)NC(C)C2CC2)c1NC(=O)c1cc(Cn2nnc(C(F)(F)C(F)(F)F)n2)nn1-c1ncccc1Cl (stereo not shown); 4.42
C=C(C)CNC(=O)c1cc(Cl)cc(C)c1NC(=O)c1cc(Cn2nnc(C(F)(F)F)n2)nn1-c1ncccc1Cl; 3.62
Cc1cc(I)cc(C(=O)NC2CC2)c1NC(=O)c1cc(Cn2nnnc2C(F)(F)F)nn1-c1ncccc1Cl; 3.12

Noted for `O=C(NCC1CC1)c1cc(Cl)cc(Cl)c1NC(=O)c1cc(Cn2nnc(C(F)F)n2)nn1-c1ncccc1Cl` : its chromatographic logP reads 3.01

Noted for `CSC[C@H](C)NC(=O)c1cc(Cl)cc(Cl)c1NC(=O)c1cc(Cn2nnc(C(F)F)n2)nn1-c1ncccc1Cl` : its chromatographic logP reads 3.13

Noted for `CCNC(=O)c1cc(Cl)cc(Cl)c1NC(=O)c1cc(Cn2nnc(C(F)(C(F)(F)F)C(F)(F)F)n2)nn1-c1ncccc1Cl` : its chromatographic logP reads 3.89

###

Experiment: log P determination by HPLC (EEC Directive 79/831 Annex V.A8)
Assay type: physicochemical
Details: log P
measured-endpoint: chromatographic logP
Could you respond with only the numeric value?

Take a look at these entries with their results.
CCOCCNC(=O)c1cc(C#N)cc(C)c1NC(=O)c1cc(Cn2nnc(C(F)(F)F)n2)nn1-c1ncccc1Cl [Example 211]; 2.99
Cc1cc(C#N)cc(C(=O)NCC(F)F)c1NC(=O)c1cc(Cn2nnc(C(F)(F)F)n2)nn1-c1ncccc1Cl [Example 91]; 2.91

Now consider the entry below.
Noted for N#CCNC(=O)c1cc(Cl)cc(Cl)c1NC(=O)c1cc(Cn2nnc(C(F)(F)F)n2)nn1-c1ncccc1Cl [Example 59] : its chromatographic logP reads 2.92
